- assay.summary: MTT reduction assay in differentiated SH-SY5Y cells
- Type: cell-based, human
- test.context: human
- Protocol: Following a protocol established in our research group, , these compounds were tested at 100 μM concentration using the 3-(4,5-dimethylthiazol-2-yl)-2,5-diphenyltetrazolium bromide (MTT) reduction and the neutral red (NR) uptake assays. […] Cell counts were performed on a Neubauer chamber using a Nikon Eclipse TS100 microscope from Nikon (Japan), and plate readings (MTT reduction and NR uptake assays) were conducted on a BioTek Synergy HT plate reader from BioTek (USA). […]
Peptide text beside a SMILES is read from it.
observable: viability at 48 h, 100 µM (%)
Unit % implied. Number only.

compound	unit.annotation	viability at 48 h, 100 µM
CC(C)C[C@H](NC(=O)[C@@H]1CCCN1)C(=O)NCC(N)=O [MIF-1, L-prolyl-L-leucylglycinamide, reference compound] (H-Pro-Leu-Gly-NH2)	%	105
CC(C)C[C@H](NC(=O)[C@@H]1CCCCN1)C(=O)NCC(N)=O [compound 1, L-pipecolyl-L-leucylglycinamide] (HELM PEPTIDE1{[O=C([C@@H]1CCCCN1)[*:2]].L.G.[am]}$$$$V2.0)	%	105

Could you share which viability at 48 h, 100 µM value was measured for COC(=O)CNC(=O)[C@H](CC(C)C)NC(=O)[C@@H]1CCCCN1 [compound 9, methyl L-pipecolyl-L-leucylglycinate] (HELM PEPTIDE1{[O=C([C@@H]1CCCCN1)[*:2]].L.G.[CO[*:1]]}$$$$V2.0) ? 105
